Target: CFTR (WT-CFTR channels stably expressed in CHO cells) (Homo sapiens (Human), UniProt P13569)
Sequence (P13569 whole entry): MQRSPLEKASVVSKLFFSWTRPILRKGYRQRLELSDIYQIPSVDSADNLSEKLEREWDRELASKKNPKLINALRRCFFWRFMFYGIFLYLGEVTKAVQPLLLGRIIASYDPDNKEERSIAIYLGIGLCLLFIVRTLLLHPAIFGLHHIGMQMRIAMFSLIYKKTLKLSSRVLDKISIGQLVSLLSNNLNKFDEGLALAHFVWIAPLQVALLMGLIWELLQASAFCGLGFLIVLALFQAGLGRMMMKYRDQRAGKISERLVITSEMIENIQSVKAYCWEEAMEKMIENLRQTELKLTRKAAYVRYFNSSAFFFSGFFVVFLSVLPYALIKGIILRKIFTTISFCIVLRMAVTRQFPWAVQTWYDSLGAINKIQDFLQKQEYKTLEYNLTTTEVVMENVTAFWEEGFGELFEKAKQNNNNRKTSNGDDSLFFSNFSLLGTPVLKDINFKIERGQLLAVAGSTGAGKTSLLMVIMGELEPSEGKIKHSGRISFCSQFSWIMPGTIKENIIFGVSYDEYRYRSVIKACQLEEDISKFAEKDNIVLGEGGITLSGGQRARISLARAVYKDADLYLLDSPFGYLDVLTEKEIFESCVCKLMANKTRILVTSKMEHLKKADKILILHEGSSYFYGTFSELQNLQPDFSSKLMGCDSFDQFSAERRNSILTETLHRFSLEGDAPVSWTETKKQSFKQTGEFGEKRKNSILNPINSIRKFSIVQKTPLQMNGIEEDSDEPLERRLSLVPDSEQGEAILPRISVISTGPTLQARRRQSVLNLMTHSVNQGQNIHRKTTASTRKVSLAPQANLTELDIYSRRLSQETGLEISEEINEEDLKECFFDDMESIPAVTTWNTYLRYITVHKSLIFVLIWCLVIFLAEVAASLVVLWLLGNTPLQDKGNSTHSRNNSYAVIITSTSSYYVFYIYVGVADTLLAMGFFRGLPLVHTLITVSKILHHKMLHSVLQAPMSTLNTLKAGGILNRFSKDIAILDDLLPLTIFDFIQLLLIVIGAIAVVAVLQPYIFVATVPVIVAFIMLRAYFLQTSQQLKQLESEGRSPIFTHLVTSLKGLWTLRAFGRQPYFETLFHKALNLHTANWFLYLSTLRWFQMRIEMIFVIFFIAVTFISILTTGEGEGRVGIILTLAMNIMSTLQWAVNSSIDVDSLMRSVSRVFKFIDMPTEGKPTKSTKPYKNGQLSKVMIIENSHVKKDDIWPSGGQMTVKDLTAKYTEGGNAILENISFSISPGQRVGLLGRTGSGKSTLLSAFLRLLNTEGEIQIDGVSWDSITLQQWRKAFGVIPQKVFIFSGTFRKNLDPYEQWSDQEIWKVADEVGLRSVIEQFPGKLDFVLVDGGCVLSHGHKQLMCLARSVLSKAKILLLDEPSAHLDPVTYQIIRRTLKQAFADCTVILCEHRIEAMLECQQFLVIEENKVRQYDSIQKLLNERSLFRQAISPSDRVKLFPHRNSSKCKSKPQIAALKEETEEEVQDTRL
Experiment: IonWorks Quattro CFTR inhibitor assay (whole-cell population patch clamp, forskolin-activated current)
Type: cell-based
Conditions: inward current (−100 mV); CHO cells stably expressing WT-CFTR; CFTR activated with 10 μM forskolin; 10 min compound incubation
The following compounds are listed with their measured IC50 values.

compound	inequality.sign	IC50 [µM]
Cn1c(=O)c2c(-c3ccccc3)n3c(c2n(C)c1=O)C(c1cccc(F)c1F)NCC3 (centres unmarked)	=	11.5
Cn1c(=O)c2c(-c3cccc(F)c3)n3c(c2n(C)c1=O)[C@H](c1ccc(Cl)o1)O[C@@H](CO)C3	=	0.05
Cc1csc(C2OC[C@@H](C)n3c(-c4ccccc4)c4c(=O)n(C)c(=O)n(C)c4c32)n1 (some centres unmarked)	=	3.24
Cn1c(=O)c2c(-c3ccccc3)n3c(c2n(C)c1=O)C(c1ccc(Cl)o1)OC(C)(C)C3 (centres unmarked)	=	0.62
Cn1c(=O)c2c(-c3cccc(C#N)c3)n3c(c2n(C)c1=O)[C@@H](c1nc(Cl)cs1)O[C@H](CO)C3 (single isomer, unassigned)	=	8.06
Cn1c(=O)c2c(-c3ccccc3)n3c(c2n(C)c1=O)C(c1nccs1)NCC3 (centres unmarked)	=	5.42
Cc1csc(C2NCCn3c(-c4cccc(Cl)c4)c4c(=O)n(C)c(=O)n(C)c4c32)n1 (centres unmarked)	=	0.64
Cc1ccc(C2OCCn3c(-c4ccccc4)c4c(=O)n(C)c(=O)n(C)c4c32)o1 (single isomer, unassigned) [Example 4.2]	>	30
Cn1c(=O)c2c(-c3cccc(C#N)c3)n3c(c2n(C)c1=O)C(c1ccc(Cl)o1)NCC3 (single isomer, unassigned)	=	0.59
CN(C)C[C@@H]1Cn2c(-c3cccc(Cl)c3)c3c(=O)n(C)c(=O)n(C)c3c2[C@H](c2ccc(Cl)o2)O1 (stereo in doubt)	=	0.54
Cc1csc([C@H]2O[C@@H](C)Cn3c(-c4ccccc4)c4c(=O)n(C)c(=O)n(C)c4c32)n1	=	0.6
Cn1c(=O)c2c(-c3cccc(Cl)c3)n3c(c2n(C)c1=O)[C@H](c1nc(Cl)cs1)O[C@@H](CO)C3 (stereo in doubt)	=	0.07
Cn1c(=O)c2c(-c3ccccc3)n3c(c2n(C)c1=O)[C@H](c1ccc(Cl)o1)N[C@@H](CO)C3 [Example 11a]	=	0.31
Cc1ccc(C2OCCn3c(-c4ccccc4)c4c(=O)n(C)c(=O)n(C)c4c32)o1 (racemic) [Example 4.1]	=	4.23

---

The following molecules are listed with their measured log10(IC50) values.
Biological target: CFTR (WT-CFTR channels stably expressed in CHO cells) (Homo sapiens (Human))
Assay: IonWorks Quattro CFTR inhibitor assay (whole-cell population patch clamp, forskolin-activated current)
Type: cell-based
Conditions: inward current (−100 mV); CHO cells stably expressing WT-CFTR; CFTR activated with 10 μM forskolin; 10 min compound incubation
quantity: log10(IC50) (log10 of the value in µM)

molecule	assayed.target	log10(IC50)
Cn1c(=O)c2c(-c3nc(CO)cs3)n3c(c2n(C)c1=O)C(c1ccc(Cl)o1)O[C@@H](CO)C3 (single isomer, unassigned)	CFTR (WT-CFTR channels stably expressed in CHO cells) (Homo sapiens (Human))	-0.21
Cc1ccc(C2OCCn3c(-c4ccccc4)c4c(=O)n(C)c(=O)n(C)c4c32)o1 (single isomer, unassigned) [Example 4.3]	CFTR (WT-CFTR channels stably expressed in CHO cells) (Homo sapiens (Human))	0.50
Cn1c(=O)c2c(-c3cccc(C#N)c3)n3c(c2n(C)c1=O)[C@H](c1ccc(Cl)o1)O[C@@H](CO)C3 (stereo in doubt)	CFTR (WT-CFTR channels stably expressed in CHO cells) (Homo sapiens (Human))	-0.62
CCc1ccc(C2NCCn3c(-c4ccccc4)c4c(=O)n(C)c(=O)n(C)c4c32)o1 (stereo not drawn)	CFTR (WT-CFTR channels stably expressed in CHO cells) (Homo sapiens (Human))	0.80
COC[C@@H]1Cn2c(-c3cccc(Cl)c3)c3c(=O)n(C)c(=O)n(C)c3c2[C@H](c2ccc(Cl)o2)O1 (stereo in doubt)	CFTR (WT-CFTR channels stably expressed in CHO cells) (Homo sapiens (Human))	-0.62
Cn1c(=O)c2c(-c3ccccc3)n3c(c2n(C)c1=O)[C@H](c1nc(Cl)cs1)COCC3	CFTR (WT-CFTR channels stably expressed in CHO cells) (Homo sapiens (Human))	0.55

---

Target: CFTR (WT-CFTR channels stably expressed in CHO cells) (Homo sapiens (Human))
Assay: IonWorks Quattro CFTR inhibitor assay (whole-cell population patch clamp, forskolin-activated current)
Type: cell-based
Details: inward current (−100 mV); CHO cells stably expressing WT-CFTR; CFTR activated with 10 μM forskolin; 10 min compound incubation
Parameter class (string): assigned from measured IC50. Ranges: lower bin (below 2 µM), middle bin (2 µM to below 8 µM), upper bin (8 µM or more)

compound	qualitative.label
Cn1ccc(C2NCCn3c(-c4ccccc4)c4c(=O)n(C)c(=O)n(C)c4c32)n1 (stereo not shown) [Example 1.12]	upper bin
Cn1c(=O)c2c(-c3ccccc3)n3c(c2n(C)c1=O)C(C1CC=CCC1)NCC3 (stereo not shown) [Example 1.17]	upper bin
Cn1c(=O)c2c(-c3ccccc3)n3c(c2n(C)c1=O)C(C1CCCCC1)NCC3 (single isomer, unassigned) [Example 2.6]	middle bin
Cc1ccc([C@@H]2NCCn3c(-c4ccccc4)c4c(=O)n(C)c(=O)n(C)c4c32)o1 [Example 1.2]	lower bin
Cc1csc(-c2c3c(=O)n(C)c(=O)n(C)c3c3n2C[C@H](CO)O[C@H]3c2ccc(Cl)o2)n1 (stereo in doubt) [Example 7.0a]	lower bin
Cn1c(=O)c2c(-c3cccc(Cl)c3)n3c(c2n(C)c1=O)C(c1ccc(Cl)o1)NCC3 (stereo not shown) [Example 3.1]	lower bin
Cc1cc(C)cc(-c2c3c(=O)n(C)c(=O)n(C)c3c3n2CCNC3c2ccc(Cl)o2)c1 (stereo not shown) [Example 3.6]	upper bin
Cc1ccc(C2NCCn3c(-c4ccccc4)c4c(=O)n(C)c(=O)n(C)c4c32)o1 (racemic) [Example 1.1]	middle bin
Cc1cccc(-c2c3c(=O)n(C)c(=O)n(C)c3c3n2C[C@H](C)O[C@H]3c2ccc(Cl)o2)c1 (stereo in doubt) [Example 12.1]	middle bin
Cn1c(=O)c2c(-c3cccc(Cl)c3)n3c(c2n(C)c1=O)[C@H](c1ccc(Cl)o1)O[C@@H](CO)C3 (stereo in doubt) [Example 8.1a]	lower bin
Cc1csc(-c2c3c(=O)n(C)c(=O)n(C)c3c3n2CCNC3c2ccc(Cl)o2)n1 (stereo not shown) [Example 1.26]	lower bin
Cn1c(=O)c2c(-c3ccccc3)n3c(c2n(C)c1=O)C(c1nc(C(F)(F)F)cs1)NCC3 (stereo not shown) [Example 1.9]	middle bin
Cn1c(=O)c2c(-c3ccccc3)n3c(c2n(C)c1=O)C(c1ccc(Cl)cc1)NCC3 (stereo not shown) [Example 1.23]	upper bin
Cc1ccc([C@H]2NCCn3c(-c4ccccc4)c4c(=O)n(C)c(=O)n(C)c4c32)o1 (single isomer, unassigned) [Example 1.3]	upper bin
Cn1c(=O)c2c(-c3ccccc3)n3c(c2n(C)c1=O)C(c1nc(C(F)(F)F)cs1)NCC3 (single isomer, unassigned) [Example 2.4]	middle bin
